# System: Hep G2 cells
# Assay overview: In vitro toxicity (CellTiter-Glo cell viability), Hep G2;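 note: percent of untreated cells luminescence signal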
# Type: cell-based
# Condition label: cirRNA (SEQ ID NO: 1) LNPs; Hep G2 cells
compounds and their reported In vitro Viability HepG2
Report as a plain number; the unit % is understood.

Some entries whose results are on file:
{"Compound": "CCCCCCCCC(CCCCCCCC)OC(=O)CCCCCCCN(CCCCCCCCOC(=O)C(CCCCCC)CCCCCCCC)CCCOC(=O)NCCN1CCCC1 (stereo not shown)", "Quantity measured": "In vitro Viability HepG2", "Unit symbol": "%", "Measurement": 95}
{"Compound": "CCCCCCCOC(=O)CCCCCCCCCN(CCCCCCCCCC(=O)OCCCCCCC)CCOC(=O)NCCCN(CC)CC", "Quantity measured": "In vitro Viability HepG2", "Unit symbol": "%", "Measurement": 17}
{"Compound": "CCCCC/C=C\\C/C=C\\CCCCCCCCN(CCCCCCCC(=O)OC(CCCCCCCC)CCCCCCCC)CCOC(=O)NCCN1CCCCC1", "Quantity measured": "In vitro Viability HepG2", "Unit symbol": "%", "Measurement": 99}
{"Compound": "CCCCC/C=C\\C/C=C\\CCCCCCCCN(CCCCCCCC(=O)OC(CCCCCCCC)CCCCCCCC)CCOC(=O)NCCN1CCOCC1", "Quantity measured": "In vitro Viability HepG2", "Unit symbol": "%", "Measurement": 13}
{"Compound": "CCCCCCCCC(CCCCCC)C(=O)OCCCCCCCCN(CCCCCCCCOC(=O)C(CCCCCC)CCCCCCCC)CCCOC(=O)NCc1ncc[nH]1 (stereo not shown)", "Quantity measured": "In vitro Viability HepG2", "Unit symbol": "%", "Measurement": 100}
{"Compound": "CCCCCCCCCCCOC(=O)CCCCCN(CCCCCCCCOC(=O)C(CCCCCC)CCCCCCCC)CCOC(=O)NCCN1CCCC1 (stereo not shown)", "Quantity measured": "In vitro Viability HepG2", "Unit symbol": "%", "Measurement": 91}

Lab note: next compound to report on.
Q: I'd like to know its In vitro Viability HepG2. The compound in question is CCCCCCCCCCC(CCCCCCCC)COC(=O)CCCCCN(CCCCCC(=O)OCC(CCCCCCCC)CCCCCCCCCC)CCCOC(=O)NCCN1CCCC1 (stereo not shown)
Result: 78

---

# System: RAW 264.7 cells
# Assay overview: In vitro toxicity (CellTiter-Glo cell viability), RAW 264.7;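 note: percent of untreated cells luminescence signal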
# Format: cell-based
# Condition label: cirRNA (SEQ ID NO: 1) LNPs; RAW 264.7 cells
compounds and their reported In vitro Viability RAW
Report as a plain number; the unit % is understood.

{"Compound": "CCCCCCCCCC(=O)OCCCCCCCCN(CCCCCCCCOC(=O)CCCCCCCCC)CCOC(=O)NCCN(C)C", "Quantity measured": "In vitro Viability RAW", "Measurement": 92}
{"Compound": "CCCCCCCCCCC(CCCCCCCC)COC(=O)CCCCCN(CCCCCC(=O)OCC(CCCCCCCC)CCCCCCCCCC)CCOC(=O)NCCCn1ccnc1 (centres unmarked)", "Quantity measured": "In vitro Viability RAW", "Measurement": 90}
{"Compound": "CCCCC/C=C\\C/C=C\\CCCCCCCCN(CCCCCCCC/C=C\\C/C=C\\CCCCC)CCOC(=O)NCCN(C)C", "Quantity measured": "In vitro Viability RAW", "Measurement": 70}
{"Compound": "CCCCCCCCC(CCCCCC)C(=O)OCCCCCCCCN(CCCCCCCCOC(=O)C(CCCCCC)CCCCCCCC)CCCOC(=O)NCCN1CCCC1 (centres unmarked)", "Quantity measured": "In vitro Viability RAW", "Measurement": 72}

Lab note: next compound to report on.
Q: Identify the measured In vitro Viability RAW of CCCCCCCCCCC(CCCCCCCC)COC(=O)CCCCCN(CCCCCC(=O)OCC(CCCCCCCC)CCCCCCCCCC)CCCOC(=O)NCCN1CCCCCC1 (centres unmarked) for RAW 264.7 cells.
Result: 91
